# MEASURED ON: Melanocortin receptor 4 (Homo sapiens) (UniProt P32245)
# Sequence (P32245 whole entry, looked up): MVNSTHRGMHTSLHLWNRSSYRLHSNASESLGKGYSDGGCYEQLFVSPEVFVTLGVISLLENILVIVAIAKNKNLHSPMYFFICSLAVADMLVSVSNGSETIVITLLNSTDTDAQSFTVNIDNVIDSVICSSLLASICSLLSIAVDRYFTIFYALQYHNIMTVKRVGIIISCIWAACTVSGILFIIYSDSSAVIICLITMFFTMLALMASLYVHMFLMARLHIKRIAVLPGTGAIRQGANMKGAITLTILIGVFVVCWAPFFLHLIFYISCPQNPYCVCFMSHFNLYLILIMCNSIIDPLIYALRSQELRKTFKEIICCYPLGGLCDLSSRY
# PROTOCOL SUMMARY: activators of MC4R beta-arrestin recruitment – cell-based, luminescence, agonist arm of biased-ligand search, primary screen (AID 540308)
# CONDITION INFO: U2OS MC4R beta-arrestin complementation, at 8.9 µM, percent of melanotan II response, DMSO zero
The campaign covered roughly 360,000 compounds. About 3,500 (0.97%) were called active.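 How the source made its calls: active means activation above a per-plate cutoff, the mean activation of sample wells on that plate plus 3 SD (cut at about 8% in these data); inactive means the rest.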 For the sample, actives were picked, then their nearest neighbours and some compounds at random.
Outcome codes: class 1 = active, class 0 = inactive

{"MOLECULE": "COC(=O)c1cc(C(=O)N(Cc2ccccc2)c2ccccn2)cc([N+](=O)[O-])c1", "ANSWER LABEL": "class 0"}
{"MOLECULE": "CC(=O)Nc1ccc(-c2csc(NC(=O)Nc3ccccc3)n2)cc1", "ANSWER LABEL": "class 1"}
{"MOLECULE": "O=C1N/C(=C/c2cccn2-c2ccccc2)C(=O)N1c1cccc(Cl)c1", "ANSWER LABEL": "class 1"}
{"MOLECULE": "O=C1CC(NNc2ccccc2)C(=O)N1c1cccc(Cl)c1 (stereo not drawn)", "ANSWER LABEL": "class 0"}
{"MOLECULE": "CCOCCC(=O)Nc1ccc2c(c1)c(=O)n(C)n2-c1ccc2ccccc2c1", "ANSWER LABEL": "class 0"}
{"MOLECULE": "CCCNC(=O)c1cc(C2CCCCN2S(=O)(=O)c2ccc(C#N)cc2)on1 (stereo not drawn)", "ANSWER LABEL": "class 0"}
{"MOLECULE": "Cc1nc(C(F)(F)F)ccc1C(=O)N1CCC1(C)C(=O)NS(=O)(=O)c1ccc(F)cc1F (stereo not drawn)", "ANSWER LABEL": "class 0"}
{"MOLECULE": "COc1cc(NC(=O)c2cccs2)ccc1NC(=O)c1ccccc1Cl", "ANSWER LABEL": "class 0"}
{"MOLECULE": "Cc1ccc(F)c(NC(=O)CCOc2ccccc2C)c1", "ANSWER LABEL": "class 0"}
{"MOLECULE": "Cc1ccc(F)c(S(=O)(=O)NC(=O)C2(C)CCN2C(=O)c2ccco2)c1 (stereo not drawn)", "ANSWER LABEL": "class 0"}
{"MOLECULE": "CC1(C(=O)NS(=O)(=O)c2ccc(C#N)cc2)CCN1C(=O)CC1CCCC1 (stereo not drawn)", "ANSWER LABEL": "class 0"}
{"MOLECULE": "CSCCC(Nc1ccc(S(=O)(=O)N2CCOCC2)cc1[N+](=O)[O-])C(=O)OCC(=O)N(C(C)C)C(C)C (stereo not drawn)", "ANSWER LABEL": "class 0"}
{"MOLECULE": "CC1(Oc2cccc(F)c2)CCN(Cc2ccccc2OC(F)F)C1 (stereo not drawn)", "ANSWER LABEL": "class 0"}
{"MOLECULE": "O=C(NC(=S)Nc1ccc(S(=O)(=O)Nc2ncccn2)cc1)c1cccc(Br)c1", "ANSWER LABEL": "class 0"}
{"MOLECULE": "Cc1cc(Br)ccc1NC(=O)CCCOc1cc(=O)n(C)c2ccccc12", "ANSWER LABEL": "class 0"}
{"MOLECULE": "CN(C(=O)CN1CCN(c2cc(-c3ccc(OCc4ccccc4)cc3)ncn2)CC1)c1ccccc1", "ANSWER LABEL": "class 0"}
{"MOLECULE": "CC1(Cc2ccccc2C#N)C(=O)Nc2ccc(-c3ccc4[nH]ccc4c3)cc21 (stereo not drawn)", "ANSWER LABEL": "class 0"}
{"MOLECULE": "CCCCOC(=O)c1[nH]c(C)c(C(=O)OC)c1C", "ANSWER LABEL": "class 0"}
{"MOLECULE": "CC1(C(=O)NS(=O)(=O)Cc2cccc(Cl)c2)CCN1C(=O)Cc1ccc(Cl)cc1Cl (stereo not drawn)", "ANSWER LABEL": "class 0"}
{"MOLECULE": "CCC(=O)c1cc2c(cc1NC(=O)c1cccs1)OCCO2", "ANSWER LABEL": "class 1"}
{"MOLECULE": "Cc1nn2cc(-c3ccc(Cl)cc3)cnc2c1Br", "ANSWER LABEL": "class 1"}
{"MOLECULE": "O=C(Nc1nc(-c2ccc(-c3ccccc3)cc2)cs1)c1cnccn1", "ANSWER LABEL": "class 1"}
{"MOLECULE": "Cc1ccccc1-c1csc(C(O)c2cccc(Cl)c2)n1 (stereo not drawn)", "ANSWER LABEL": "class 0"}
{"MOLECULE": "CC(C)CNC(=O)C1(C)CCCN1C(=O)CSc1ccccc1 (stereo not drawn)", "ANSWER LABEL": "class 0"}
{"MOLECULE": "CCn1c(SCC(=O)Nc2cccc(F)c2)nnc1-c1cc2cc(Br)ccc2o1", "ANSWER LABEL": "class 1"}
{"MOLECULE": "N#Cc1ccccc1CN1C(=O)S/C(=C/c2cccn2-c2cccc(C(=O)O)c2)C1=O", "ANSWER LABEL": "class 0"}
{"MOLECULE": "Cc1ccccc1OCC(=O)Nc1nc(C)c(C(=O)N(C)C)s1", "ANSWER LABEL": "class 0"}
{"MOLECULE": "CCOC(=O)c1ccc(NC(=O)c2nc[nH]c2C(=O)NCc2ccccc2)cc1", "ANSWER LABEL": "class 1"}
{"MOLECULE": "CS(=O)(=O)c1cccc(-c2ccc3nncn3c2)c1", "ANSWER LABEL": "class 0"}
{"MOLECULE": "CCOc1ccc(C(=O)Nc2ccc(S(=O)(=O)NCC3CCCO3)cc2)cc1OCC (stereo not drawn)", "ANSWER LABEL": "class 0"}
{"MOLECULE": "O=C(NCc1cccnc1)c1ccc2nc([C@@H]3O[C@H](CO)[C@H](O)[C@H](O)[C@H]3O)[nH]c2c1", "ANSWER LABEL": "class 0"}
{"MOLECULE": "OC(c1cc(Cl)cc(Cl)c1)c1ncc(-c2ccccc2C(F)(F)F)[nH]1 (stereo not drawn)", "ANSWER LABEL": "class 0"}
{"MOLECULE": "COc1ccc(CC(=O)Nc2cc(S(=O)(=O)N3CCCCC3)ccc2N2CCN(C)CC2)cc1", "ANSWER LABEL": "class 0"}
{"MOLECULE": "CCOC(=O)c1c(NC(=O)CNC2CCCc3ccccc32)sc(C(N)=O)c1C (stereo not drawn)", "ANSWER LABEL": "class 1"}
{"MOLECULE": "CCOC(=O)c1c(NC(=S)SC)sc(C(=O)N2CCc3ccccc3C2)c1C", "ANSWER LABEL": "class 0"}
{"MOLECULE": "O=C(NCc1cccnc1)c1cc(C2CCCCN2C(=O)CCc2ccccc2)on1 (stereo not drawn)", "ANSWER LABEL": "class 0"}
{"MOLECULE": "COc1ccc(C(=O)n2nc(C)c(Br)c2C)cc1OC", "ANSWER LABEL": "class 0"}
{"MOLECULE": "COc1ccc(NC(=O)C2Cc3c(-c4ccc5c(c4)OCO5)ccnc3O2)cn1 (stereo not drawn)", "ANSWER LABEL": "class 0"}
{"MOLECULE": "O=C(NC(=S)Nc1cccc2c(O)cccc12)c1cccc(Br)c1", "ANSWER LABEL": "class 1"}
{"MOLECULE": "CCn1c(CNC(=O)c2ccco2)nnc1SCC(=O)Nc1cccc(F)c1", "ANSWER LABEL": "class 0"}
{"MOLECULE": "CNc1cnc(-c2cc(OC)c(OC)c(OC)c2)cn1", "ANSWER LABEL": "class 0"}
{"MOLECULE": "CCc1cc2c(N3CCN(c4nnc(CC)s4)CC3)ncnc2s1", "ANSWER LABEL": "class 0"}
{"MOLECULE": "O=C(Nc1ccon1)c1nc[nH]c1C(=O)NCc1ccccc1", "ANSWER LABEL": "class 0"}

====

# MEASURED ON: Melanocortin receptor 4 (Homo sapiens)
# PROTOCOL SUMMARY: activators of MC4R beta-arrestin recruitment – cell-based, luminescence, agonist arm of biased-ligand search, primary screen (AID 540308)
# CONDITION INFO: U2OS MC4R beta-arrestin complementation, at 8.9 µM, percent of melanotan II response, DMSO zero
The campaign covered roughly 360,000 compounds. About 3,500 (0.97%) were called active.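 The calls were made as follows: active = activation above a per-plate cutoff, the mean activation of sample wells on that plate plus 3 SD (cut at about 8% in these data); inactive = the rest.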 The sample holds actives, similar compounds and a random draw of the others, so the mix is not that of the screen.
Outcomes: 1 = active, 0 = inactive

{"COMPOUND": "COc1ccccc1C(=O)COC(=O)COc1ccc(C#N)cc1", "ANSWER LABEL": 0}
{"COMPOUND": "O=C(Nc1ccc(Cl)c(C(F)(F)F)c1)C1Cc2c(-c3ccccc3Oc3ccccc3)ccnc2O1 (stereo not given)", "ANSWER LABEL": 0}
{"COMPOUND": "N#C/C(=C(/O)COC(=O)COc1ccc(Cl)cc1)c1nc2ccccc2[nH]1", "ANSWER LABEL": 1}
{"COMPOUND": "O=C(c1cc(C2CCCCN2S(=O)(=O)c2ccccc2)on1)N1CCOCC1 (stereo not given)", "ANSWER LABEL": 0}
{"COMPOUND": "C=CCn1c(SCCOc2ccc(OC)cc2)nnc1C(NC(=O)c1ccc(OC)cc1)C(C)C (stereo not given)", "ANSWER LABEL": 0}
